So I've got a bunch of molecules here, and I need their growth values.
# Tested on: A498 renal
# METHOD DESCRIPTION: NCI-60 one-dose screen, 48 h (100 = growth as untreated, 0 = no growth, -100 = all killed)
# ASSAY SETUP: 10 µM unless noted
About 83,000 compounds went through this panel and 20% of them were active in at least one assay; those are over-represented in the sample as a whole.
Answers are plain numbers, in %.

MOLECULE	growth / %
Cc1nc2sc(C(=O)Nc3ccccn3)c(N)c2cc1C(C)O (stereo not given)	77.1
O=C(/C=C/c1ccccc1Cl)c1cccc(OCCCCOc2cccc(C(=O)/C=C/c3ccccc3Cl)c2)c1	109
NS(=O)(=O)c1ccc(C(=O)NN2C(=O)c3ccccc3C2=O)cc1	73.3
COc1ccc(-c2nc3c(c(-c4ccc(Cl)cc4)nn3-c3ccccc3)c(-c3ccccc3)c2C#N)cc1	111
FC(F)(F)c1[nH]ncc1-c1nc2ccc3[nH]ncc3c2c2c1CCCC2	-60.5

List the reported growth of each molecule below.
1. CN1CC(c2ccc(Br)cc2)C(C(=O)c2ccc(Br)cc2)C12C(=O)Nc1ccccc12 (stereo not given)
2. O=S(O)c1cc(Cl)cc(Cl)c1OCc1ccccc1
3. CCOC(=O)CC1CSC(N/N=C/c2ccc(F)c(Br)c2)=N1 (stereo not given)
4. COc1ccc2c(c1)C(C)Cc1c(ncnc1-n1cnc3cc(C)ccc31)N2C (stereo not given)
5. O=c1oc2ccccc2cc1-c1nn(-c2ccccc2)cc1-c1nn[nH]n1

1. 88.9
2. 80
3. 95.7
4. 6.42
5. 95.1

----------
# Test system: M14 melanoma
# METHOD DESCRIPTION: NCI-60 one-dose screen, 48 h (100 = growth as untreated, 0 = no growth, -100 = all killed)
# ASSAY SETUP: 10 µM unless noted
Compounds without any hit were thinned out: in the full panel of roughly 83,000, 20% have a hit. Calls of active or inactive are those of the source. How the source made its calls: active means growth percent below 10; inactive means the rest.
PROPERTY MEASURED: growth

COMPOUND	RESULT
COc1cc(-c2ccc(-c3ccc(C(=N)N)cc3)s2)cc(OC)c1OC	47.9% (inactive)
C/C(=N\Nc1ccccc1)c1ccc(NC2=CC(=O)c3ccccc3C2=O)cc1	26.3% (inactive)
CC(=O)O[C@H]1CC[C@]2(C)[C@H]3CC=C4[C@@H]5CC(C)(C)CC[C@]5(C(=O)N5CCN(CCC#N)CC5)CC[C@@]4(C)[C@]3(C)CC[C@H]2C1(C)C	35.7% (inactive)

Please look at the items below and tell me growth for each one, in order.
1. N=C(N)c1ccc(OCCSCCOc2ccc(C(=N)N)cc2)cc1
2. CCN(CC)C(=O)C1=C(C)NC(=O)NC1c1ccc2c(c1)OCO2 (stereo not given)

75.3% (inactive)
104% (inactive)

----------
# Test system: RXF 393 renal
# METHOD DESCRIPTION: NCI-60 one-dose screen, 48 h (100 = growth as untreated, 0 = no growth, -100 = all killed)
# ASSAY SETUP: 10 µM unless noted
This is part of a sample that, as a whole, favours compounds with a hit. Of some 83,000 tested, about 20% had one in any assay.
PROPERTY MEASURED: growth (%)
Numbers only, in %.

COc1ccc(-c2cc(-c3cccnc3)nc3sc4c(N)c(C(C)=O)c(-c5ccccc5)nc4c23)cc1OC 50.1

# batch size: 2; output growth per entry
1. O=[N+]([O-])c1ccccc1Nc1ccc2ccccc2c1
2. COc1cccc(-c2cn3nc(-c4cn(C)c5ccccc45)sc3n2)c1

1. 133
2. 104

----------
# Tested on: MDA-MB-435 melanoma
# METHOD DESCRIPTION: NCI-60 one-dose screen, 48 h
# ASSAY SETUP: 10 µM unless noted
This is part of a sample that, as a whole, favours compounds with a hit. Of some 83,000 tested, about 20% had one in any assay. Active and inactive are the calls of the source. Rule for the calls: active = growth percent below 10; inactive = the rest.
Respond only with the outcome that fits, drawn from True for active, False for inactive

Known results for compounds:
COMPOUND	LABEL CLASS
CN(C)c1ccc([C@@H](C(=O)Nc2cccc([N+](=O)[O-])c2)N(C(=O)c2cc3ccccc3[nH]2)c2cccc([N+](=O)[O-])c2)cc1	False
COc1cc(Cc2cc(OC)c(O)c(OC)c2)cc(OC)c1O	True
Cc1ncc(C(=O)Nc2ccc(CN3CCN(C)CC3)c(C(F)(F)F)c2)cc1C#Cc1cnc(N)c2ccc(C#N)cc12	True
CCOC(=O)C#Cc1c(C(=O)OCC)nnn1[C@@H]1O[C@H](COC)[C@@H](OC)[C@H]1OC	False
O=[N+]([O-])c1c(O)c(Cl)cc(Cl)c1Cl	False

Answer briefly: the call reported for CCN1C(=O)N(CC)C2C1NN=c1s/c(=C\c3ccc(OC)cc3)c(=O)n12 (stereo not given) in this assay.
True

Consider next the compound `Cn1cc(-c2nc3c(F)cc4[nH]ncc4c3c3c2CCCC3)c(C(F)(F)F)n1` in the same way.
False

Now the same for `Cc1ccc(-c2nc(SCC(=O)N3CCN(c4cc5c(cc4F)c(=O)c(C(=O)O)cn5C4CC4)CC3)nc(Cl)c2C#N)cc1`
False

Entry `C=C[C@@]1(C)CC(=O)[C@@H](C(C)(C)c2cn(C)c3ccc(Br)cc23)C[C@@H]1O[Si](C)(C)C(C)(C)C` please
False

Consider next the compound `CCOC(=O)NC(=S)n1oc(=O)c2ccccc21` in the same way.
False

Moving on to the next compound: O=C1C=CC2(O)OC/C(=C\c3ccccc3)C(O)=C2C1=O (stereo not given)
False

Please answer likewise for COC1C(O)CC(OC2CC(OC3CC(O[C@@H]4C(=O)c5c(cc6cc(OC7CC(OC8CC(O)C(O)C(C)O8)C(O)C(C)O7)c(C)c(O)c6c5O)CC4[C@H](OC)[C@@H](O)C(C)=O)OC(C)C3O)OC(C)C2O)OC1C (stereo not given in full)
True

What do you have for `COc1ccc(/C=C(/C(=O)N2CCNCC2)c2cc(OC)c(OC)c(OC)c2)cc1O` ?
True

What do we get for `COCCn1cc(-c2csc(-c3c[nH]c4ccc(F)cc34)n2)c2cccnc21` ?
True

----------
# Tested on: NCI-H226 lung
# METHOD DESCRIPTION: NCI-60 one-dose screen, 48 h (100 = growth as untreated, 0 = no growth, -100 = all killed)
# ASSAY SETUP: 10 µM unless noted
Compounds without any hit were thinned out: in the full panel of roughly 83,000, 20% have a hit.
Provide the reported growth of each item.
Give bare numbers, in %.

Give measured growth for every item shown.
1. COc1cc2c(cc1-c1c(C)noc1C)ncc1nc(CN3CCOCC3)n([C@H](C)COC(F)F)c12
2. CCCc1cc(=O)oc2c(C(=O)CC(C)C)c(O)c(CC=C(C)C)c(O)c12

1. 58
2. 23.5

Batch request: growth for each of the following compounds.
1. O=C(NN1C(=O)CSC1c1cccc([N+](=O)[O-])c1)c1ccc(NC(=O)c2ccccn2)cc1 (stereo not drawn)
2. C=C(C)[C@@H]1CC[C@]2(COC3CCCCO3)CC[C@]3(C)[C@H](CC[C@@H]4[C@@]5(C)C=C(C=O)C(=O)C(C)(C)[C@@H]5CC[C@]43C)[C@@H]12 (stereo partly drawn)
3. COc1cc2c(c(OC)c1OC)C(=O)CC(c1cccc(C(=O)Nc3ccccc3Br)c1)O2 (stereo not drawn)

106
1.68
86

For every listed record, write down its growth.
1. Nc1ncccc1O
2. CSc1ccc2c3c(n(CCCn4ccnc4)c(=O)c2c1)-c1ccccc1C3=O
3. COc1ccc(-c2cc(-c3cn(-c4cccc(Cl)c4)nc3-c3ccc(OC)cc3)on2)cc1

1. 94.1
2. 69.2
3. 89.9

----------
# System: SNB-19 CNS
# METHOD DESCRIPTION: NCI-60 one-dose screen, 48 h
# ASSAY SETUP: 10 µM unless noted
Compounds without any hit were thinned out: in the full panel of roughly 83,000, 20% have a hit. Active and inactive are the calls of the source. How the source made its calls: active means growth percent below 10; inactive means the rest.
Tick one outcome: active, inactive

Solved cases below.
COMPOUND	LABEL CLASS
Cn1cc(-c2csc(-c3cn(C)c4ccccc34)n2)c2cnccc21	inactive
COc1ccc(CN2C(=O)OC(C)(COC(C)=O)C2=O)cc1 (stereo unspecified)	inactive
Cc1nc(N/N=C/c2cn(-c3ccccc3)nc2-c2cc3ccccc3oc2=O)sc1N=Nc1ccccc1	inactive
CCN1C2CCC1/C(=C\c1ccccc1)C(=O)/C2=C/c1ccccc1	inactive
CCN(CC)CCOc1ccc(Nc2ncc3cc(-c4c(Cl)cccc4Cl)c(=O)n(CCOC)c3n2)cc1	inactive
Cc1ccc(-c2csc(NC(=O)CSc3nc(N)cc(N)n3)n2)cc1	inactive
O=C(C[C@]1(O)C(=O)Nc2ccc(Br)cc21)c1ccco1	inactive
O=C(Cc1ccc(/C=C/C(=O)c2ncc[nH]2)cc1)Nc1cc(F)c(F)c(F)c1	inactive

Attention now turns to another entry.
Just curious, what result did Cc1cc(C)c2c(c1)N(C)c1ncnc(-n3c(C)nc4cc(C)ccc43)c1CC2C (stereo unspecified) get here?
inactive
